These entries and their values trace back to ChEMBL document CHEMBL4406810.

- Test target: Adenosine receptor A1 (Homo sapiens, UniProt P30542)
- Assay remarks: Antagonist activity at human A1AR expressed in CHO cells assessed as suppression of CCPA-induced inhibition of forskolin-stimulated cAMP production by alphascreen assay
Some molecules, each annotated with its measured pIC50.
// field semantics: pIC50 = negative decimal log of concentration (mol/L)

N#Cc1c(NCc2ccccc2)nc(SCCO)c(C#N)c1-c1ccco1    7.12

Next:
**Q:** Fill in reported pIC50 for this entry: N#Cc1c(NC2CC2)nc(SCCO)c(C#N)c1-c1ccco1
**A:** 6.93

---

- Test target: Adenosine receptor A1 (Homo sapiens)
- Sequence (P30542 whole entry): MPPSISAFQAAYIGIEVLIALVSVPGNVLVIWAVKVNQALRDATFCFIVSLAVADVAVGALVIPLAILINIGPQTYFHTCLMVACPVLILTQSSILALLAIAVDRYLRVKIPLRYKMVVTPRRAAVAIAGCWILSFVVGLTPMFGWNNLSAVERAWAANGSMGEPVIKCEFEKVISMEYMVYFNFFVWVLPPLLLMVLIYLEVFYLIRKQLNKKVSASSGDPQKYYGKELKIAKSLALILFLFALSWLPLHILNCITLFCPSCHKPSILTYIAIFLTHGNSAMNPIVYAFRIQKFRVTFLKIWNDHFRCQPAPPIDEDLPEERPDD
- Assay remarks: Displacement of [3H]DPCPX from human A1AR expressed in CHO cell membranes measured after 90 mins by scintillation counting method
Some molecules, each annotated with its measured Ki.
Express it in nM; write the number only.

Check out these entries, answers already filled in.
N#Cc1c(N)nc(SCc2cccc(CO)c2)c(C#N)c1-c1ccco1    0.98
N#Cc1c(N)nc(SCc2ccccn2)c(C#N)c1-c1ccco1    2.71
N#Cc1c(N)nc(SCCO)c(C#N)c1-c1ccoc1    19

Next:
**Q:** Fill in reported Ki for this entry: N#Cc1cccc(CSc2nc(N)c(C#N)c(-c3ccco3)c2C#N)c1
**A:** 1.02

---

- Test target: Adenosine receptor A3 (Homo sapiens) (UniProt P0DMS8)
- Assay remarks: Displacement of [125I]ABMECA from human A3R expressed in CHO cell membranes at 1 uM measured after 120 mins by scintillation counting method relative to control
Hi all, reminder that labels come from inhibition, split as bottom range = under 10%, center range = from 10% up to 20%, top range = 20% and over

Some solved entries appear below for comparison.
COC(=O)c1cccc(CSc2nc(N)c(C#N)c(-c3ccco3)c2C#N)c1    top range
N#Cc1c(N)nc(NCCO)c(C#N)c1-c1cccnc1    bottom range
N#Cc1c(NCc2ccccc2)nc(SCCO)c(C#N)c1-c1ccco1    center range

**Q:** Class (by measured inhibition) for COC(=O)CSc1nc(N)c(C#N)c(-c2ccco2)c1C#N
**A:** top range

**Q:** Class (by measured inhibition) for N#Cc1c(Nc2ccc(I)cc2)nc(SCCO)c(C#N)c1-c1ccco1
**A:** bottom range

---

Some molecules, each annotated with its measured pKi.
- Test target: Adenosine receptor A3 (Homo sapiens)
- Sequence (P0DMS8 whole entry): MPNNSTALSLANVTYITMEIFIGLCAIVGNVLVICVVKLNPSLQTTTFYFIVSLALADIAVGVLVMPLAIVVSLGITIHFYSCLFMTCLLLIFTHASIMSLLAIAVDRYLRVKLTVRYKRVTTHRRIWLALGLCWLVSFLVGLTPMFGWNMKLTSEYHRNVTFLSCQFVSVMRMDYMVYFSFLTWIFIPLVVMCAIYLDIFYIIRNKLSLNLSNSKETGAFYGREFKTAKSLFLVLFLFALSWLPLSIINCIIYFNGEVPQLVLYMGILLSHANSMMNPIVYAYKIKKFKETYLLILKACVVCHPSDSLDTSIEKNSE
// field semantics: pKi = negative decimal log of concentration (mol/L)

N#CCSc1nc(N)c(C#N)c(-c2ccco2)c1C#N    6.24

Next:
**Q:** Fill in reported pKi for this entry: N#Cc1c(NC2CCCC2)nc(SCCO)c(C#N)c1-c1ccco1
**A:** 6.11
